- study-target: Quinolone resistance protein NorA (Staphylococcus aureus) (UniProt P0A0J7)
- protocol-summary: Inhibition of NorA in Staphylococcus aureus SA-1199B expressing GrlA A116E mutant assessed as minimal potentiating drug concentration causing 8 fold reduction in ciprofloxacin MIC by microdilution method based Checkerboard assay
reported-property: log10(Activity) (log10 of the value in µg/mL)
Give log10 of Activity, with Activity taken in µg/mL.

Observe how each entry below is paired with its result.
- CCCOc1ccc(-c2cc(OCCN(CC)CC)c3c(OC)cccc3n2)cc1: 0.50
- CCCOc1ccc(-c2cc(OCCN3CCCCC3)c3ccc(OC)cc3n2)cc1: 0.50
- CCCOc1ccc(-c2cc(OCCN(CC)CC)c3cc(OC)c(OC)cc3n2)cc1: 1.70

Query :: // query log10(Activity) value for entry CCCOc1ccc(-c2cc(OCCN3CCNCC3)c3cccc(OC)c3n2)cc1
Result :: 1.40

Query :: // query log10(Activity) value for entry CCCOc1ccc(-c2cc(OCCN3CCc4cc(OC)c(OC)cc4C3)c3cc(OC)c(OC)cc3n2)cc1
Result :: -0.11

Query :: // query log10(Activity) value for entry CCCOc1ccc(-c2cc(OCCN(CC)CC)c3ccccc3n2)cc1
Result :: 1.10
